Biological target: T1, human serum albumin (human, UniProt P02768 25-609)
T1 construct: mature; Bought protein; biotinylated in the Octet and HTRF assays; also called HSA; HuSA
Experiment: SPR (Biacore) binding response to HSA at pH 7.4, Affimer at 50 nM
Each entry below lists one item and its recorded binding response value.
Enter a number only.

HSA-41 (designed binder, also called HSA-41 parent; HSA-41 AH parent) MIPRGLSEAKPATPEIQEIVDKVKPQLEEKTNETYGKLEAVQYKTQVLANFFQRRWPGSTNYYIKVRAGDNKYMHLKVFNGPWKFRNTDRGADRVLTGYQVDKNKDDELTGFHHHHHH; 36.8
HSA-41 F51A (designed binder) MIPRGLSEAKPATPEIQEIVDKVKPQLEEKTNETYGKLEAVQYKTQVLANAFQRRWPGSTNYYIKVRAGDNKYMHLKVFNGPWKFRNTDRGADRVLTGYQVDKNKDDELTGFHHHHHH; 2.8
HSA-41 W56A (designed binder) MIPRGLSEAKPATPEIQEIVDKVKPQLEEKTNETYGKLEAVQYKTQVLANFFQRRAPGSTNYYIKVRAGDNKYMHLKVFNGPWKFRNTDRGADRVLTGYQVDKNKDDELTGFHHHHHH; 2.6

Task: Return the recorded binding response value; entry: HSA-41 G58A (designed binder) MIPRGLSEAKPATPEIQEIVDKVKPQLEEKTNETYGKLEAVQYKTQVLANFFQRRWPASTNYYIKVRAGDNKYMHLKVFNGPWKFRNTDRGADRVLTGYQVDKNKDDELTGFHHHHHH
Result: 6.5
